These data points were gathered from patent US20260258032A1.

Target: JH2 domain of human Tyk2 (Homo sapiens, UniProt P29597)
Construct: 10×His-tagged TYK2 JH2 domain (amino acid 575-876)
Sequence (P29597 575-876): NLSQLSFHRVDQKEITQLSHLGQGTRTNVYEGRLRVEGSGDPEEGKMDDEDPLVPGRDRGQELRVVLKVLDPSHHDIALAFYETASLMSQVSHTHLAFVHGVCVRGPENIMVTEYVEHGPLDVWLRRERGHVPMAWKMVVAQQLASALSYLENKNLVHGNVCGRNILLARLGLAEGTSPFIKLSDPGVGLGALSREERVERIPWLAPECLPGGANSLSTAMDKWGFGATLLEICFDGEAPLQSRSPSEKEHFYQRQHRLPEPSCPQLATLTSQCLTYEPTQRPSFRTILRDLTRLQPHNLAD
Experiment: JH2 biochemical assay (TR-FRET probe displacement)
Assay type: binding
Conditions: JH2 biochemical assay
Where a name gives a salt, the structure may show the parent alone.
Give IC50 for every item shown.

- COMPOUND: "COC(C)c1nc(C)cc(N2CC3(CC3)c3cnc(NC(C)=O)cc32)n1 (stereo not shown)"
  RESULT: "≤ 10 nM"
- COMPOUND: "CC(=O)Nc1cc2c(cn1)C1(CC1)CN2c1cc(C2CCOC2)nc(C(C)(F)F)n1 (stereo not shown) [Example 297, trifluoroacetate]"
  RESULT: "≤ 10 nM"
- COMPOUND: "CC(=O)Nc1cc2c(cn1)C1(CC1)CN2c1cc(Oc2cnn(C)c2)nc(C(C)(F)F)n1 [Example 145, trifluoroacetate]"
  RESULT: "10 to 100 nM"
- COMPOUND: "COC(C)CNc1cc(N2CC3(CC3)c3cnc(NC(C)=O)cc32)nc(C(C)(F)F)n1 (stereo not shown) [Example 171, trifluoroacetate]"
  RESULT: "≤ 10 nM"
- COMPOUND: "CC(=O)Nc1cc2c(cn1)C1(CC1)CN2c1cc(-c2cnn(C)c2C)nc(C(C)(F)F)n1 [Example 240, trifluoroacetate]"
  RESULT: "≤ 10 nM"

Parameter requested: IC50. Apply to each item below.
1. CC(=O)Nc1cc2c(cn1)C1(CC1)CN2c1cc(Cl)nc(C(C)(C)F)n1
2. CC(=O)Nc1cc2c(cn1)C1(CC1)CN2c1cc(C)nc(N2CC(C#N)(C(F)F)C2)n1 [Example 223, trifluoroacetate]

[A]
1. ≤ 10 nM
2. 10 to 100 nM

====

Biological target: JH2 domain of human Tyk2 (Homo sapiens, UniProt P29597)
Construct: 10×His-tagged TYK2 JH2 domain (amino acid 575-876)
Assay: JH2 biochemical assay (TR-FRET probe displacement)
Type: binding
Conditions: JH2 biochemical assay
Where a name gives a salt, the structure may show the parent alone.
REPORTED METRIC: IC50

Guide cases for IC50, answers given:
- MOLECULE: "CC(=O)Nc1cc2c(cn1)C1(CC1)CN2c1cc(C)cc(N2CCNCC2)n1 [Example 211, trifluoroacetate]"
  IC50: "≤ 0.01 µM"
- MOLECULE: "CC(=O)Nc1cc2c(cn1)C1(CC1)CN2c1cc(C)nc(C2CCCN(C)C2)n1 (stereo not shown)"
  IC50: "≥ 1 µM"
- MOLECULE: "CC(=O)Nc1cc2c(cn1)C1(CC1)CN2c1cc([C@H]2C[C@@H](C#N)C2)nc(C(C)(F)F)n1"
  IC50: "≤ 0.01 µM"

Now let's try a different one.
[Q] What value of IC50 has been reported for the following molecule? CC(=O)Nc1cc2c(cn1)C1(CC1)CN2c1cc(C)nc(N2CC(S(C)(=O)=O)C2)n1
[A] 0.1 to 1 µM

====

I'd be grateful if you could share measured IC50 for these entries.
Target: JH2 domain of human Tyk2 (Homo sapiens, UniProt P29597)
Construct: 10×His-tagged TYK2 JH2 domain (amino acid 575-876)
Experiment: JH2 biochemical assay (TR-FRET probe displacement)
Format: binding
Conditions: TR-FRET probe displacement, JH2 domain of human Tyk2
Structures can show the parent of a compound that is named as a salt.

Consider the worked cases shown below.
- COMPOUND: "CC(=O)Nc1cc2c(cn1)C1(CC1)CN2c1cc(C)nc(OCC2CCO2)n1 (stereo not shown) [Example 380, trifluoroacetate]"
  IC50: "10 to 100 nM"
- COMPOUND: "CC(=O)Nc1cc2c(cn1)C1(CC1)CN2c1cc(-c2cnn(C(F)F)c2)nc(C(C)(F)F)n1 [Example 383, trifluoroacetate]"
  IC50: "≤ 10 nM"

Consider the following items and state reported IC50 for each.
1. CC(=O)Nc1cc2c(cn1)C1(CC1)CN2c1cc(-c2cnn(CC#N)c2)nc(C(C)(F)F)n1
2. CC(=O)Nc1cc2c(cn1)C1(CC1)CN2c1cc(C(C)(C)O)nc(C(C)(F)F)n1
3. CC(=O)Nc1cc2c(cn1)C1(CC1)CN2c1cc(-c2cnn(CCN(C)C)c2)nc(C(C)(F)F)n1 [Example 391, trifluoroacetate]
4. CC(=O)Nc1cc2c(cn1)C1(CC1)CN2c1cc(-c2cnn(C3CCC3)c2)nc(C(C)(F)F)n1 [Example 382, trifluoroacetate]
5. CC(=O)Nc1cc2c(cn1)C1(CC1)CN2c1cc(C)nc(OC2CC(F)C2)n1 (stereo not shown)
6. CC(=O)Nc1cc2c(cn1)C1(CC1)CN2c1cc(-c2ccncc2F)nc(C(C)(F)F)n1 [Example 381, trifluoroacetate]
7. CC(=O)Nc1cc2c(cn1)C1(CC1)CN2c1cc(-c2cn[nH]c2)nc(C(C)(F)F)n1 [Example 395, trifluoroacetate]

[A]
1: ≤ 10 nM; 2: ≤ 10 nM; 3: ≤ 10 nM; 4: ≤ 10 nM; 5: 10 to 100 nM; 6: ≤ 10 nM; 7: ≤ 10 nM

Respectfully, I request IC50 for each entry included below.
1. COC(C)(C)COc1nc(C)cc(N2CC3(CC3)c3cnc(NC(C)=O)cc32)n1
2. COC1CC(COc2nc(C)cc(N3CC4(CC4)c4cnc(NC(C)=O)cc43)n2)C1 (stereo not shown)

[A]
1: 100 to 1000 nM; 2: 100 to 1000 nM

Quick batch: IC50 for everything below.
1. COCc1cc(N2CC3(CC3)c3cnc(NC(C)=O)cc32)nc(C(C)(F)F)n1
2. CC(=O)Nc1cc2c(cn1)C1(CC1)CN2c1cc(C(C)F)nc(C(C)(F)F)n1 (stereo not shown)

[A]
["≤ 10 nM", "≤ 10 nM"]

====

Target: JH2 domain of human Tyk2 (Homo sapiens, UniProt P29597)
Construct: 10×His-tagged TYK2 JH2 domain (amino acid 575-876)
Assay: JH2 biochemical assay (TR-FRET probe displacement)
Format: binding
Details: JH2 biochemical assay
Procedure: The inhibitory potency of compounds of the disclosure against the kinase activity of recombinantly generated JH2 domain of human Tyk2 was evaluated in a plate-based assay using a TR-FRET assay platform. […] The TR-FRET signal inversely correlates to the amount of probe displaced by compounds and signal was calculated by taking the ratio of fluorescence at 520 nm and 495 nm. […]
pIC50: −log10 of the molar value. Structures can show the parent of a compound that is named as a salt.
REPORTED METRIC: pIC50

Worked examples follow.
- COMPOUND: "COC(C)c1nccc(N2CC3(CC3)c3cnc(NC(C)=O)cc32)n1 (centres unmarked)"
  REPORTED METRIC: "pIC50"
  RESULT: "7.00 to 8.00"
- COMPOUND: "CC(=O)Nc1cc2c(cn1)C1(CC1)CN2c1cc(C)nc(C)n1"
  REPORTED METRIC: "pIC50"
  RESULT: "7.00 to 8.00"
- COMPOUND: "CC(=O)Nc1cc2c(cn1)C1(CC1)CN2c1cc(NC2CCOCC2)nc(C(C)(F)F)n1"
  REPORTED METRIC: "pIC50"
  RESULT: "≥ 8.00"
- COMPOUND: "CC(=O)Nc1cc2c(cn1)C(C)(C)CN2c1ccnc(C(C)(F)F)n1"
  REPORTED METRIC: "pIC50"
  RESULT: "≤ 6.00"
- COMPOUND: "CC(=O)Nc1cc2c(cn1)C1(CC1)CN2c1cc(C)cc(OCC(F)(F)F)n1 [Example 333, trifluoroacetate]"
  REPORTED METRIC: "pIC50"
  RESULT: "6.00 to 7.00"

Hi, could you look up pIC50 for each item in my list?
1. CC(=O)Nc1cc2c(cn1)C1(CC1)CN2c1cc(-c2cn(C)nc2C)nc(C(C)(F)F)n1 [Example 239, trifluoroacetate]
2. CC(=O)Nc1cc2c(cn1)C1(CC1)CN2c1cc(NC(C)=O)nc(C(C)(F)F)n1
3. COC1(c2cccc(N3CC4(CC4)c4cnc(NC(C)=O)cc43)n2)COC1

[A]
1. ≥ 8.00
2. ≥ 8.00
3. 7.00 to 8.00

====

Biological target: JH2 domain of human Tyk2 (Homo sapiens, UniProt P29597)
Construct: 10×His-tagged TYK2 JH2 domain (amino acid 575-876)
Assay: JH2 biochemical assay (TR-FRET probe displacement)
Assay type: binding
Details: JH2 biochemical assay
Counter-ions that a name gives are not always drawn.
Could you please report measured IC50 for the items listed next?

Examples from the recorded data:
- MOLECULE: "CC(=O)Nc1cc2c(cn1)C1(CC1)CN2c1nc(C(C)(F)F)ncc1F"
  IC50: "10 to 100 nM"
- MOLECULE: "CC(=O)Nc1cc2c(cn1)C1(CC1C)CN2c1nccc(C(C)(F)F)n1 (centres unmarked)"
  IC50: "10 to 100 nM"
- MOLECULE: "COc1ccc(-c2nc(C)cc(N3CC4(CC4)c4cnc(NC(C)=O)cc43)n2)cn1 [Example 254, trifluoroacetate]"
  IC50: "100 to 1000 nM"
- MOLECULE: "CC(=O)Nc1cc2c(cn1)C1(CC1)CN2c1cccc(S(C)(=O)=O)n1"
  IC50: "≤ 10 nM"
- MOLECULE: "CC(=O)Nc1cc2c(cn1)C1(CC1)CN2c1cc(C)cc(OCC(C)(F)F)n1 [Example 356, trifluoroacetate]"
  IC50: "10 to 100 nM"

// for each molecule below, give its IC50
1. COCCNc1cc(C)cc(N2CC3(CC3)c3cnc(NC(C)=O)cc32)n1
2. CC(=O)Nc1cc2c(cn1)C1(CC1)CN2c1cc(NCC2(F)CC2)nc(C(C)(F)F)n1 [Example 160, trifluoroacetate]
3. CC(=O)Nc1cc2c(cn1)C1(CC1)CN2c1cc(C)cc(N2CCOCC2)n1

[A]
["100 to 1000 nM", "≤ 10 nM", "10 to 100 nM"]
